half-life at 1 µM values for the compounds below.
# protocol-summary: Metabolic stability in cryopreserved human hepatocytes
# Assay type: in vitro ADME
# condition-info: human, cryopreserved human hepatocytes (pooled, suspension), supplement CSV; human hepatocytes; read-out: HLH t1/2
observation-type: half-life at 1 µM

Cl.O=C(c1cc(Cc2n[nH]c(=O)c3ccccc23)ccc1F)N1CCNCC1 [Compound 45, reference compound] | > 4 h
O=C(COc1cccc2c1C(=O)N(C1CCC(=O)NC1=O)C2=O)NCCOCCOCCOCCNC(=O)COc1c(-c2csc(N3CCOCC3)n2)ccc(F)c1F (centres unmarked) | 1.11 h
O=C(COc1c(-c2csc(N3CCOCC3)n2)ccc(F)c1F)NCCCCCCCCNc1cccc2c1C(=O)N(C1CCC(=O)NC1=O)C2=O (centres unmarked) | 0.793 h
Cc1ncsc1-c1ccc([C@H](C)NC(=O)[C@@H]2C[C@@H](O)CN2C(=O)[C@@H](NC(=O)COCCOCCNC(=O)COc2c(-c3csc(N4CCOCC4)n3)ccc(F)c2F)C(C)(C)C)cc1 | 0.627 h
Cc1ncsc1-c1ccc([C@H](C)NC(=O)[C@@H]2C[C@@H](O)CN2C(=O)[C@@H](NC(=O)CCCCCCNC(=O)COc2c(-c3csc(N4CCOCC4)n3)ccc(F)c2F)C(C)(C)C)cc1 | 0.417 h
Cc1ncsc1-c1ccc([C@H](C)NC(=O)[C@@H]2C[C@@H](O)CN2C(=O)[C@@H](NC(=O)COCCCNC(=O)c2ccc3c(c2)nc(Nc2cccc(Cl)c2)c2ccncc23)C(C)(C)C)cc1 | 2.65 h
Cc1ncsc1-c1ccc([C@H](C)NC(=O)[C@@H]2C[C@@H](O)CN2C(=O)[C@@H](NC(=O)CCN2CCN(C(=O)C[C@@H]3N=C(c4ccc(Cl)cc4)c4c(sc(C)c4C)-n4c(C)nnc43)CC2)C(C)(C)C)cc1 | > 4 h
O=C(COc1cccc2c1C(=O)N(C1CCC(=O)NC1=O)C2=O)NCCCCCCCCNC(=O)COc1c(-c2csc(N3CCOCC3)n2)ccc(F)c1F (centres unmarked) | 0.14 h
Cc1ncsc1-c1ccc([C@H](C)NC(=O)[C@@H]2C[C@@H](O)CN2C(=O)[C@@H](NC(=O)CCCCCCCOc2c(-c3csc(N4CCOCC4)n3)ccc(F)c2F)C(C)(C)C)cc1 | 1.13 h
Cc1sc2c(c1C)C(c1ccc(Cl)cc1)=N[C@@H](CC(=O)NCCCN1CCN(CCCNc3cccc4c3C(=O)N(C3CCC(=O)NC3=O)C4=O)CC1)c1nnc(C)n1-2 (some centres unmarked) | 1.45 h
Nc1cccc2c1C(=O)N(C1CCC(=O)NC1=O)C2=O (centres unmarked) [Compound 41, pomalidomide, reference compound] | 2.33 h
Cc1sc2c(c1C)C(c1ccc(Cl)cc1)=N[C@@H](CC(=O)NCCCCCCCCNc1cccc3c1C(=O)N(C1CCC(=O)NC1=O)C3=O)c1nnc(C)n1-2 (some centres unmarked) | 0.918 h
Cc1ncsc1-c1ccc([C@H](C)NC(=O)[C@@H]2C[C@@H](O)CN2C(=O)[C@@H](N)C(C)(C)C)cc1 [Compound 42, reference compound] | 1.53 h
O=C(O)c1ccc2c(c1)nc(Nc1cccc(Cl)c1)c1ccncc12 [Compound 44, CX4945, reference compound] | 1.66 h
Cc1ncsc1-c1ccc([C@H](C)NC(=O)[C@@H]2C[C@@H](O)CN2C(=O)[C@@H](NC(=O)CCCCNC(=O)COc2c(-c3csc(N4CCOCC4)n3)ccc(F)c2F)C(C)(C)C)cc1 | 1.24 h
O=C(COc1cccc2c1C(=O)N(C1CCC(=O)NC1=O)C2=O)NCCCCCCCCNC(=O)c1ccc2c(c1)nc(Nc1cccc(Cl)c1)c1ccncc12 (centres unmarked) | 0.69 h
Cc1ncsc1-c1ccc([C@H](C)NC(=O)[C@@H]2C[C@@H](O)CN2C(=O)[C@@H](NC(=O)COCCCOCCNC(=O)C[C@@H]2N=C(c3ccc(Cl)cc3)c3c(sc(C)c3C)-n3c(C)nnc32)C(C)(C)C)cc1 [Compound 10, ARV-771, reference compound] | 2.52 h
